B1: TPR t1 (parent)
chain: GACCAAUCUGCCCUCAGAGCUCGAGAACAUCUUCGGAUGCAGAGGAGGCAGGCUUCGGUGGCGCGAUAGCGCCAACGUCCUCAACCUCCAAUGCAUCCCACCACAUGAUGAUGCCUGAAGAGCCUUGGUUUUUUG

# Variants of: B1
# TEST DETAILS: polymerase ribozyme fitness, log enrichment relative to wild type (log ratio); higher = more active; in vitro selection for triplet polymerase activity

[
  {
    "SEQUENCE VARIANT": "C13A A18U C53U",
    "polymerase ribozyme fitness (log ratio)": -3.95
  },
  {
    "SEQUENCE VARIANT": "U78C A83C",
    "polymerase ribozyme fitness (log ratio)": 0.0151
  },
  {
    "SEQUENCE VARIANT": "A2G G60C G71U A91C G120C",
    "polymerase ribozyme fitness (log ratio)": -6.25
  },
  {
    "SEQUENCE VARIANT": "A2G U21A G69U G71C",
    "polymerase ribozyme fitness (log ratio)": -4.01
  },
  {
    "SEQUENCE VARIANT": "A18C A66U",
    "polymerase ribozyme fitness (log ratio)": -5.53
  },
  {
    "SEQUENCE VARIANT": "C73A G93A U131G",
    "polymerase ribozyme fitness (log ratio)": -0.498
  },
  {
    "SEQUENCE VARIANT": "G71U C72A C89A G117A",
    "polymerase ribozyme fitness (log ratio)": -5.63
  },
  {
    "SEQUENCE VARIANT": "A41G G52C G58U C62A U78C A111C G127A",
    "polymerase ribozyme fitness (log ratio)": -4.32
  },
  {
    "SEQUENCE VARIANT": "A18G C101G G117C",
    "polymerase ribozyme fitness (log ratio)": -4.66
  },
  {
    "SEQUENCE VARIANT": "C13A A43U G60C C88A",
    "polymerase ribozyme fitness (log ratio)": -4.2
  },
  {
    "SEQUENCE VARIANT": "A37G C88A G113U",
    "polymerase ribozyme fitness (log ratio)": -5.31
  }
]
